Provenance of the data: patent US12338236B2

molecular target: human dopamine D2s receptor (Homo sapiens, UniProt P14416); construct: expressed in transfected cells; host or cells: CHO-K1; assay: Determination of Ki values at D2S receptor ([3H]-Raclopride radioligand binding); settings: hD2 (D2S), CHO-K1, [3H]-Raclopride 4 nM; read-out: Ki D2
Sequence (P14416 1-414 isoform P14416-2): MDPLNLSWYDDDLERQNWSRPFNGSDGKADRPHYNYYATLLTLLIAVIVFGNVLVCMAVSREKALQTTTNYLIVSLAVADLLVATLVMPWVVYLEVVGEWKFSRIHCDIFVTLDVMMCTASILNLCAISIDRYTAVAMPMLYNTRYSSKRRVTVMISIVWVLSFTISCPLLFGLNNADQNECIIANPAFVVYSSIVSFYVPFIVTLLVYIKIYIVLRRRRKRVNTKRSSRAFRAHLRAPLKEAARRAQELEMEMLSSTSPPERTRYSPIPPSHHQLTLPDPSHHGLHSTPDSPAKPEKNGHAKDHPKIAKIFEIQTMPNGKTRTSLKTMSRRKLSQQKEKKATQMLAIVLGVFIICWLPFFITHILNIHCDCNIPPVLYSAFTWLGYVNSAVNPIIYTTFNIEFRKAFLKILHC
Where a name gives a salt, the structure may show the parent alone.

{"Compound": "Cc1noc(-c2csc(OCCCN3CCN(c4nsc5ccccc45)CC3)n2)n1 [compound 12, oxalate]", "Ki": "0.4 nM"}
{"Compound": "Cc1nc(-c2csc(OCCCN3CCN(c4nsc5ccccc45)CC3)n2)no1 [compound 10, oxalate]", "Ki": "1.5 nM"}
{"Compound": "Cc1nnc(-c2csc(OCCCN3CCN(c4nsc5ccccc45)CC3)n2)o1 [Example-1]", "Ki": "0.51 nM"}
{"Compound": "Cc1nnc(-c2csc(OCCCN3CCN(c4nsc5ccccc45)CC3)n2)o1 [Example-2, oxalate]", "Ki": "0.41 nM"}
{"Compound": "c1ccc2c(N3CCN(CCCOc4ccc(-c5cnco5)cn4)CC3)nsc2c1 [compound 22, oxalate]", "Ki": "0.4 nM"}
{"Compound": "Cc1nnc(-c2csc(OCCCN3CCC(c4noc5cc(F)ccc45)CC3)n2)o1 [compound 24, oxalate]", "Ki": "0.7 nM"}

* * *

# log10 of Ki per entry
Target: human 5-HT2A receptor (Homo sapiens)
Construct: expressed in transfected cells; host or cells: CHO-K1
Sequence (P28223 whole entry): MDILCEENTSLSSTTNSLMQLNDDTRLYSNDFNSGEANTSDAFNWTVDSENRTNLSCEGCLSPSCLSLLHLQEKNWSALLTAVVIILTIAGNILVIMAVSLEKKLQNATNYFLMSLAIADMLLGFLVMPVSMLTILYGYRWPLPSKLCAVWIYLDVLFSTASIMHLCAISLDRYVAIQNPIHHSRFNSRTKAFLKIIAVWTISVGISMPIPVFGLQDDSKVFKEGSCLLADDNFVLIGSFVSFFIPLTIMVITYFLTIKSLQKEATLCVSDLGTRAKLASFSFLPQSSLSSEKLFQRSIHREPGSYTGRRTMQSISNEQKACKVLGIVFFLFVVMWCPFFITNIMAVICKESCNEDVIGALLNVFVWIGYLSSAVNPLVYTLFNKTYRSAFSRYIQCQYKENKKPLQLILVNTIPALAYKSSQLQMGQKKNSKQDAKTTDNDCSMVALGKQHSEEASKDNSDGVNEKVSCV
Test: Determination of Ki values at 5-HT2A receptor ([3H]-Ketanserine radioligand binding)
Conditions: h5-HT2A, CHO-K1, [3H]-Ketanserine 1.25 nM
Text: Example-44: Determination of Ki Values at 5-HT2A Receptor […]
Counter-ions that a name gives are not always drawn.
Assay endpoint: log10 of Ki (log10 of the value in nM)

{"Compound": "Cc1nnc(-c2csc(OCCCN3CCN(c4nsc5ccccc45)CC3)n2)o1 [Example-1]", "log10 of Ki": -0.46}
{"Compound": "Cc1nnc(-c2csc(OCCCN3CCN(c4nsc5ccccc45)CC3)n2)o1 [Example-2, oxalate]", "log10 of Ki": -0.62}
{"Compound": "Cc1noc(-c2csc(OCCCN3CCN(c4nsc5ccccc45)CC3)n2)n1 [compound 12, oxalate]", "log10 of Ki": -0.30}
{"Compound": "c1ccc2c(N3CCN(CCCOc4ccc(-c5cnco5)cn4)CC3)nsc2c1 [compound 22, oxalate]", "log10 of Ki": -2.00}
{"Compound": "Cc1nnc(-c2csc(OCCCN3CCC(c4noc5cc(F)ccc45)CC3)n2)o1 [compound 24, oxalate]", "log10 of Ki": -0.52}
{"Compound": "Cc1nc(-c2csc(OCCCN3CCN(c4nsc5ccccc45)CC3)n2)no1 [compound 10, oxalate]", "log10 of Ki": -0.30}

* * *

Known half-life of a selection of molecules
Assay: Rodent pharmacokinetic study
Format: in vivo, Male Wistar rats
Conditions: male, Wistar; rat, intravenous (bolus), 1 mg/kg, plasma
Procedure: Example-49: Rodent Pharmacokinetic Study Male Wistar rats (250±50 grams) were used as experimental animals. Animals were housed individually in polypropylene cages. […] After dosing of animal, each time point a 200 μL of blood sample was collected through the jugular vein and replenished with an equivalent volume of normal saline. […] Study samples were analyzed using calibration samples in the batch and quality control samples spread across the batch. […]
Where a name gives a salt, the structure may show the parent alone.

{"Molecule": "Cc1noc(-c2csc(OCCCN3CCN(c4nsc5ccccc45)CC3)n2)n1 [compound 12, oxalate]", "half-life (h)": 2.59}
{"Molecule": "Cc1nnc(-c2csc(OCCCN3CCN(c4nsc5ccccc45)CC3)n2)o1 [Example-2, oxalate]", "half-life (h)": 1.98}

* * *

assay: Rodent pharmacokinetic study; assay type: in vivo, Male Wistar rats; settings: male, Wistar; rat, oral (gavage), 3 mg/kg, plasma
Structures can show the parent of a compound that is named as a salt.
Assay endpoint: Cmax (ng/mL)

{"Molecule": "Cc1noc(-c2csc(OCCCN3CCN(c4nsc5ccccc45)CC3)n2)n1 [compound 12, oxalate]", "Assay endpoint": "Cmax", "Observed measurement": 279}
{"Molecule": "Cc1nnc(-c2csc(OCCCN3CCN(c4nsc5ccccc45)CC3)n2)o1 [Example-2, oxalate]", "Assay endpoint": "Cmax", "Observed measurement": 724}

* * *

test: Rodent brain penetration study; format: in vivo, Male Wistar rats; conditions: male, Wistar, brain and plasma, po; rat, 3 mg/kg, p.o. @ 1 h; read-out: Rat Brain Penetration (Cbrain/Cplasma)
Where a name gives a salt, the structure may show the parent alone.

{"Compound": "Cc1nnc(-c2csc(OCCCN3CCN(c4nsc5ccccc45)CC3)n2)o1 [Example-2, oxalate]", "Kp at 1 h": 1.25}
{"Compound": "Cc1noc(-c2csc(OCCCN3CCN(c4nsc5ccccc45)CC3)n2)n1 [compound 12, oxalate]", "Kp at 1 h": 2.09}

* * *

Structures can show the parent of a compound that is named as a salt.
So I've got Ki readings for human SERT (Homo sapiens, UniProt P31645), take a look.

{"Molecule": "Cc1nc(-c2csc(OCCCN3CCN(c4nsc5ccccc45)CC3)n2)no1 [compound 10, oxalate]", "Assayed system": "human SERT (Homo sapiens, UniProt P31645)", "Ki / µM": 0.217}
{"Molecule": "c1ccc2c(N3CCN(CCCOc4ccc(-c5cnco5)cn4)CC3)nsc2c1 [compound 22, oxalate]", "Assayed system": "human SERT (Homo sapiens, UniProt P31645)", "Ki / µM": 0.0188}
{"Molecule": "Cc1nnc(-c2csc(OCCCN3CCC(c4noc5cc(F)ccc45)CC3)n2)o1 [compound 24, oxalate]", "Assayed system": "human SERT (Homo sapiens, UniProt P31645)", "Ki / µM": 1.67}
{"Molecule": "Cc1noc(-c2csc(OCCCN3CCN(c4nsc5ccccc45)CC3)n2)n1 [compound 12, oxalate]", "Assayed system": "human SERT (Homo sapiens, UniProt P31645)", "Ki / µM": 0.157}
{"Molecule": "Cc1nnc(-c2csc(OCCCN3CCN(c4nsc5ccccc45)CC3)n2)o1 [Example-2, oxalate]", "Assayed system": "human SERT (Homo sapiens, UniProt P31645)", "Ki / µM": 0.08}
{"Molecule": "Cc1nnc(-c2csc(OCCCN3CCN(c4nsc5ccccc45)CC3)n2)o1 [Example-1]", "Assayed system": "human SERT (Homo sapiens, UniProt P31645)", "Ki / µM": 0.0543}

* * *

Target protein (sequence): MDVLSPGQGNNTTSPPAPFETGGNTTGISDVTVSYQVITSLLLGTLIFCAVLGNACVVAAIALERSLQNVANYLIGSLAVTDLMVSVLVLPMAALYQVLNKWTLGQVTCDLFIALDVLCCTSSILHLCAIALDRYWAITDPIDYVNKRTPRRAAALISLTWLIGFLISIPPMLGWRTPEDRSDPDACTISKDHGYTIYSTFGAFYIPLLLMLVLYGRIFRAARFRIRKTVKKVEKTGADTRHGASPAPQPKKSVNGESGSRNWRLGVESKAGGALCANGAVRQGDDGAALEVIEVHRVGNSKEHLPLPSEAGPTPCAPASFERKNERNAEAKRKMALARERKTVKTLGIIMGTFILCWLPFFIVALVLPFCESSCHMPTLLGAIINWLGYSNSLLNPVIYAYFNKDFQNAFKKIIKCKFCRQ
Counter-ions that a name gives are not always drawn.
Assay endpoint: log10 of Ki (log10 of the value in nM)

{"Molecule": "Cc1nnc(-c2csc(OCCCN3CCC(c4noc5cc(F)ccc45)CC3)n2)o1 [compound 24, oxalate]", "Assay endpoint": "log10 of Ki", "Observed measurement": 0.26}
{"Molecule": "Cc1nnc(-c2csc(OCCCN3CCN(c4nsc5ccccc45)CC3)n2)o1 [Example-2, oxalate]", "Assay endpoint": "log10 of Ki", "Observed measurement": -0.82}
{"Molecule": "Cc1nc(-c2csc(OCCCN3CCN(c4nsc5ccccc45)CC3)n2)no1 [compound 10, oxalate]", "Assay endpoint": "log10 of Ki", "Observed measurement": -0.40}
{"Molecule": "c1ccc2c(N3CCN(CCCOc4ccc(-c5cnco5)cn4)CC3)nsc2c1 [compound 22, oxalate]", "Assay endpoint": "log10 of Ki", "Observed measurement": -0.52}
{"Molecule": "Cc1noc(-c2csc(OCCCN3CCN(c4nsc5ccccc45)CC3)n2)n1 [compound 12, oxalate]", "Assay endpoint": "log10 of Ki", "Observed measurement": -0.70}
{"Molecule": "Cc1nnc(-c2csc(OCCCN3CCN(c4nsc5ccccc45)CC3)n2)o1 [Example-1]", "Assay endpoint": "log10 of Ki", "Observed measurement": -1.00}

* * *

assay: Rodent pharmacokinetic study; format: in vivo, Male Wistar rats; settings: male, Wistar; rat, intravenous (bolus), 1 mg/kg, plasma
Where a name gives a salt, the structure may show the parent alone.

{"Compound": "Cc1noc(-c2csc(OCCCN3CCN(c4nsc5ccccc45)CC3)n2)n1 [compound 12, oxalate]", "AUC(0-t) / ng·h/mL": 467}
{"Compound": "Cc1nnc(-c2csc(OCCCN3CCN(c4nsc5ccccc45)CC3)n2)o1 [Example-2, oxalate]", "AUC(0-t) / ng·h/mL": 575}
